system: Jurkat; experiment: Antiproliferative activity against human lymphoblastoid cells using annexin-V FITC and PI staining by flow cytometry
measure: pIC50
Give bare numbers, as −log10 of the molar value.

Would you please give the reported pIC50 of C[S+]([O-])CCCCN=C=S (stereo unspecified) [SULFORAPHANE] with Jurkat?
5.42

----------
test system: OVCAR-3; experiment: Antiproliferative activity against human OVCAR-3 cells; type: functional, cell-based
measure: pIC50
Answers are plain numbers, as −log10 of the molar value.

Note pIC50 for the molecule shown: S=C=NCCc1ccccc1 [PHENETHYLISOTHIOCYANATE]
4.63
